The values you see were collected from PubChem BioAssay.

# TEST_DETAILS: reducers of endogenous Her2 protein level, primary screen, SKBR3 breast tumor cells, AlphaScreen, ATP viability (AID 461);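 further: percent of carrier control wells set as 100% viability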
# STATED_CONDITIONS: 18-24 h, measured here: SKBR3 viability, ATP luminescence, at 10 µM
PROPERTY: viability (%)
The response must be a number in % with no trailing unit.

Worked examples, 6 molecules total:
Problem: // lookup viability for O=C1CCCN1CCCNc1ncnc2c1[nH]c1ccc(Cl)cc12
Result: 89

Problem: Also, CN(CCc1ccccn1)C(=O)CCNC(=O)Cn1cnc2ccccc2c1=O please.
Result: 99.5

Problem: Also, CC(C(=O)c1ccccc1)n1cnc2ccccc2c1=O (configuration not stated) please.
Result: 94.5

Problem: Also, CCOC(=O)N1CCN(CC(O)COc2ccccc2C(C)CC)CC1 (configuration not stated) please.
Result: 104

Problem: Also, CCOC(=O)CNc1ccc2c(c1)OCO2 please.
Result: 88

Problem: Also, COc1cccc(S(=O)(=O)Nc2cccnc2)c1 please.
Result: 98

---
Problem: // lookup viability for CCn1cc(C2=NCC(C)O2)c2ccccc21 (configuration not stated)
Result: 96.5

Problem: Also, OCc1cn(-c2ccccc2)nc1-c1ccc2c(c1)OCCO2 please.
Result: 93

Problem: Also, CC1CCCCC1NC(=O)c1nn(C)c(=O)c2ccccc12 (configuration not stated) please.
Result: 88

Problem: Also, Cc1ccc(S(=O)(=O)NCCC(=O)OCn2nnc3ccccc3c2=O)cc1 please.
Result: 95.5

Problem: Also, O=C(CCc1ccccc1)Nc1ccncc1 please.
Result: 110
